# Test system: Danio rerio Tg(wt1b:EGFP) embryo, pronephros
# Test Description: glomerular separation, fold change vs DMSO control; higher = glomeruli further apart (abnormal)
# Condition Notes: 25 µM; exposure: 24-48 hpf
Structures can show the parent of a compound that is named as a salt.

Molecule | glomerular separation
CCCC(CCC)C(=O)O [Valproic acid] | 1.62
CC(c1cc2ccccc2s1)N(O)C(N)=O (stereo unspecified) [Zileuton] | 1.25
CCCCC(CC)CN1CN(CC(CC)CCCC)CC(C)(N)C1 (stereo unspecified) [Hexetidine] | 1.05
Nc1ccc(S(=O)(=O)Nc2ccccn2)cc1 [Sulfapyridine] | 0.906
CC(C)NCC(O)COc1ccc(COCCOC(C)C)cc1 (stereo unspecified) [Bisoprolol fumarate] | 1.2
CN(C)C(=O)C(CCN1CCC(O)(c2ccc(Cl)cc2)CC1)(c1ccccc1)c1ccccc1 [Loperamide hydrochloride] | 1.07
CCOC(=O)C1=C(COCCN)NC(C)=C(C(=O)OC)C1c1ccccc1Cl (stereo unspecified) [Amlodipine] | 0.923
OCCN1CCN(CC/C=C2/c3ccccc3Sc3ccc(Cl)cc32)CC1 [Zuclopenthixol dihydrochloride] | 1.17
C=C1c2c(Cl)ccc(O)c2C(=O)C2=C(O)[C@]3(O)C(=O)C(C(N)=O)=C(O)[C@@H](N(C)C)[C@@H]3[C@@H](O)[C@H]12.O=C(O)c1cc(S(=O)(=O)O)ccc1O [Meclocycline sulfosalicylate] | 1.02
CC1CCc2cc(F)cc3c(=O)c(C(=O)O)cn1c23 (stereo unspecified) [Flumequine] | 2.57
O=C(NCC1CCCCN1)c1cc(OCC(F)(F)F)ccc1OCC(F)(F)F (stereo unspecified) [Flecainide acetate] | 0.977
COc1ccc(-c2ccc3cc(C(=O)O)ccc3c2)cc1C12CC3CC(CC(C3)C1)C2 [Adapalene] | 0.97
CN(C)[C@@H]1C(O)=C(C(N)=O)C(=O)[C@@]2(O)C(O)=C3C(=O)c4c(O)cccc4[C@@](C)(O)[C@H]3[C@H](O)[C@@H]12 [Oxytetracycline dihydrate] | 1.22
C[C@H](CCC(=O)O)[C@H]1CC[C@H]2[C@@H]3[C@@H](O)C[C@@H]4C[C@H](O)CC[C@]4(C)[C@H]3CC[C@]12C [Urosiol] | 1.3
COc1cc(NC(C)CCCN)c2ncccc2c1 (stereo unspecified) [Primaquine diphosphate] | 1.04
CC(=C(CCO)SSCC1CCCO1)N(C=O)Cc1cnc(C)nc1N (stereo in doubt) [Fursultiamine Hydrochloride] | 1.06

Cited source for all entries: the supplement of paper PMC7366291
